# System: LOX IMVI
# protocol description: NCI tumour cell line growth inhibition, 48 h
The source made the active and inactive calls. No stated cut-off is given here; in the data, active = GI50 up to about 1.1 µM and inactive = higher.
Possible outcomes: yes (1) = active, no (0) = inactive

{"compound": "CC(CC(=O)O)(CC(=O)O)C(=O)O", "assay system": "LOX IMVI", "class": "no (0)"}
{"compound": "N=C(N)N/N=C(/c1nc2ccc([N+](=O)[O-])cc2[nH]c1=O)C(O)c1ccc([N+](=O)[O-])cc1 (stereo unspecified)", "assay system": "LOX IMVI", "class": "no (0)"}
{"compound": "COC(=O)c1ccc(/N=N/N(C)COc2ccc(Br)cc2)cc1", "assay system": "LOX IMVI", "class": "no (0)"}
{"compound": "COc1cc2cc(C(=O)N3CC(COS(C)(=O)=O)c4ccc(NC(=O)OCc5ccccc5)cc43)[nH]c2c(OC)c1OC (stereo unspecified)", "assay system": "LOX IMVI", "class": "no (0)"}
{"compound": "CCCC(O)[C@@]1(CC)CC(C)C(O)(C2(C)C[C@H](C)[C@@H](C(CC)C(=O)C(C)[C@@H](O)[C@H](C)C3OC(O)(C(CC)C(=O)O)[C@@H](C)C(O)C3CC)O2)O1 (stereo partly specified)", "assay system": "LOX IMVI", "class": "yes (1)"}
{"compound": "CCOC(=O)c1cn2c(n1)sc1cc(Cl)ccc12", "assay system": "LOX IMVI", "class": "no (0)"}
{"compound": "Cc1ccccc1/N=C/c1ccc(N(CCC#N)S(=O)(=O)c2ccccc2)cc1", "assay system": "LOX IMVI", "class": "no (0)"}
{"compound": "O=C(O)C(Cc1ccc2c(c1)CCC2)(Cc1ccc2c(c1)CCC2)C(=O)O", "assay system": "LOX IMVI", "class": "no (0)"}
{"compound": "Cc1ccc(/C=C2\\N=C(N3CCCC(CO)C3)NC2=O)cc1 (stereo unspecified)", "assay system": "LOX IMVI", "class": "no (0)"}
{"compound": "Oc1[nH]c(Nc2cccc(Cl)c2)nc2ncnc1-2", "assay system": "LOX IMVI", "class": "no (0)"}
{"compound": "N=c1c2c(ncn1N)Oc1c(c(-c3ccccc3)nn1-c1ccccc1)C2c1ccc(Cl)cc1 (stereo unspecified)", "assay system": "LOX IMVI", "class": "no (0)"}
{"compound": "COc1cc(CNC(=O)CCCCCCCCCCSC#N)ccc1O", "assay system": "LOX IMVI", "class": "no (0)"}
{"compound": "O=C(CC(Cl)=C(Cl)Cl)c1ccccc1", "assay system": "LOX IMVI", "class": "no (0)"}
{"compound": "Cc1ccccc1OC(C)C(=O)NN1C(=O)CC(=O)N(c2ccccc2)C1=S (stereo unspecified)", "assay system": "LOX IMVI", "class": "no (0)"}
{"compound": "C=CC(C)(C)/C(=C\\CO[Si](C(C)C)(C(C)C)C(C)C)C(=O)N(C)c1ccccc1I", "assay system": "LOX IMVI", "class": "no (0)"}
{"compound": "CC(C)(CNC(=O)/C(Cl)=C(/Cl)C(=O)O)CNC(=O)/C(Cl)=C(/Cl)C(=O)O", "assay system": "LOX IMVI", "class": "no (0)"}
{"compound": "CN(C)CCCN1c2ccccc2C(C)(C)c2ccccc21 [DIMETACRINE]", "assay system": "LOX IMVI", "class": "no (0)"}
{"compound": "Cn1c2ccccc2c(=NNc2cccc(C(=O)O)c2)c2ccccc21", "assay system": "LOX IMVI", "class": "no (0)"}
{"compound": "CCC1=CCC23C(=O)C=CC(=O)C2(C1)C(=O)c1cccc(OC)c1C3=O (stereo unspecified)", "assay system": "LOX IMVI", "class": "no (0)"}
{"compound": "NC(=S)/N=C(/c1nc2ccc(Cl)cc2nc1O)C(O)c1ccccc1Cl (stereo unspecified)", "assay system": "LOX IMVI", "class": "no (0)"}
{"compound": "CCOc1ccc(C2=C(Cl)c3cc(OC)c(OC)cc3C2Cl)cc1 (stereo unspecified)", "assay system": "LOX IMVI", "class": "no (0)"}
{"compound": "O=C(O)c1cc(O)nc(S)n1", "assay system": "LOX IMVI", "class": "no (0)"}
{"compound": "CC[C@@]1(O)C(=O)OCc2c1cc1n(c2=O)Cc2c-1nc1ccccc1c2/C=N\\c1ccc(N[C@@H]2c3cc4c(cc3[C@@H](c3cc(OC)c(O)c(OC)c3)[C@H]3C(=O)OC[C@@H]32)OCO4)cc1", "assay system": "LOX IMVI", "class": "yes (1)"}
{"compound": "CP(=O)(CCSc1ccccc1)c1ccccc1 (stereo unspecified)", "assay system": "LOX IMVI", "class": "no (0)"}
{"compound": "COC(=O)c1c(C(=O)OC)c2ccccn2c1-c1cc(OC)c(Br)c(=O)o1", "assay system": "LOX IMVI", "class": "no (0)"}
{"compound": "Cn1ccc(C(=O)NCCOCCNC(=O)c2ccn(C)c(=O)c2O)c(O)c1=O", "assay system": "LOX IMVI", "class": "no (0)"}
{"compound": "CCOC(=O)C1(C(=O)OCC)[C@@H](c2ccccc2)C2=NO[C@@H]3CCC[C@H]1[C@H]23", "assay system": "LOX IMVI", "class": "no (0)"}
{"compound": "CC1(C)[C@@H](Cn2cnc3c(O)nc(N)nc32)CC[C@@]1(C)CO", "assay system": "LOX IMVI", "class": "no (0)"}
{"compound": "Cc1[nH]c2ncn(N)c(=N)c2c1Cc1ccccc1", "assay system": "LOX IMVI", "class": "no (0)"}
{"compound": "CSc1nc(C)c(CCOC(C)=O)c(Cl)n1", "assay system": "LOX IMVI", "class": "no (0)"}
{"compound": "CC(C)[Si](Oc1ccc(CC2N(C(=O)c3ccc([N+](=O)[O-])cc3)C(CCc3ccccc3)CC2(C)C=O)cc1)(C(C)C)C(C)C (stereo unspecified)", "assay system": "LOX IMVI", "class": "no (0)"}

Every entry's value here was drawn from ChEMBL document CHEMBL1201862.
